- Tested on: P-gp
- assay_remarks: Activity of p-gp (unknown origin) assessed as efflux ratio
- Assay type: ADME
- setup_conditions: human, not told
quantity: efflux ratio

CCOC(=O)N1CCC(C)(CN2CCC3(CC2)CN(S(C)(=O)=O)c2ncccc23)CC1: 0.9

---

- system_tested: Muscarinic acetylcholine receptor M1 (Homo sapiens, UniProt P11229)
- Sequence (P11229 whole entry): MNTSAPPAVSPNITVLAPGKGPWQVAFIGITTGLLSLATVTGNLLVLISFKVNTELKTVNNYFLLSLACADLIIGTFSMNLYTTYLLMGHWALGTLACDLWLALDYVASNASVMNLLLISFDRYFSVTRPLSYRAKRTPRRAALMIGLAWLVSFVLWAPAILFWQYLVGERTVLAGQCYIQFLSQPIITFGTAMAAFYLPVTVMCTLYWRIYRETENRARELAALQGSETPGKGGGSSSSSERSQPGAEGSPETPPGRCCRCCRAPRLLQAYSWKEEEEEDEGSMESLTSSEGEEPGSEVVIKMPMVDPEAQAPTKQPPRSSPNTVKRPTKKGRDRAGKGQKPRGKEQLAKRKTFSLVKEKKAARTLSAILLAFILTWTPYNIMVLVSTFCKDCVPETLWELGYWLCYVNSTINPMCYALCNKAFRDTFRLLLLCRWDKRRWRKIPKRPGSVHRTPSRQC
- assay_remarks: Agonist activity at human muscarinic acetylcholine receptor M1 expressed in CHO cells assessed as calcium mobilization by FLIPR assay
quantity: EC50 (nM)

CCOC(=O)N1CCC(CN2CCC3(CC2)CN(S(C)(=O)=O)c2ncccc23)CC1: 352
